System: HOP-62 NSCLC
ASSAY PROTOCOL: NCI-60 one-dose screen, 48 h
TEST PARAMETERS: 10 µM unless noted
Procedure: Growth inhibition of the HOP-62 human Non-Small Cell Lung tumor cell line is measured as a screen for anti-cancer activity. Cells are grown in 96 well plates and exposed to the test compound for 48 hours. Compounds are tested at a single concentration, which is 10^-5 M for most compounds. The reported endpoint is percent growth (GI% or GIPRCNT), where numbers from 0 - 100% represent growth inhibition, and numbers from -100% - 0 represent cell death. […]
The panel holds about 83,000 compounds, 20% with a hit somewhere; the sample as a whole holds those more often. Calls of active or inactive are those of the source. How the source made its calls: active means growth percent below 10; inactive means the rest.
I would appreciate it if you answered using one of these outcomes: 1 (active), 0 (inactive)

Query: recorded result category for CCCCCCCCOc1cccc(S(=O)(=O)Nc2ccc(C)cc2C(=O)O)c1 in this test
Result: 0

Query: Outcome? C/C(=N\Nc1ccc(S(N)(=O)=O)cc1)c1ccc(N=Nc2c(Nc3ccccc3)[nH][nH]c2=O)cc1
Result: 1

Query: Hello, I am checking results. What call was entered for CC1[C@H]2[C@H](C[C@H]3[C@@H]4CC=C5c6sc(Nc7ccccc7F)nc6CC[C@]5(C)[C@H]4CC[C@@]32C)O[C@]12CC[C@@H](C)CO2 (stereo partly drawn) ?
Result: 1

Query: Please state the recorded outcome for this compound: COc1cccc(-c2nc(Nc3ccc(S(N)(=O)=O)cc3)c3ccccc3n2)c1
Result: 0

Query: Outcome? CN(C)CCn1c2ccccc2c2nc3cc(C(F)(F)F)ccc3nc21
Result: 0

Query: // param item: CC1(C)CC[C@]2(C(=O)O)CC[C@]3(C)C(=CCC4[C@@]5(C)C[C@@H](O)[C@@H]6OC(c7ccc(F)cc7)OC[C@@]6(C)C5CC[C@]43C)C2C1 (stereo partly drawn) ; yields the recorded call
Result: 0

Query: Can you look up the reported call for NS(=O)(=O)c1ccc(N=Nc2c(O)n(CC(=O)Nc3ccccc3)c3ccccc23)cc1 for me?
Result: 0

Query: Status in this test for Cc1ccc(-c2nc(C#N)c(S(=O)(=O)N3CCN(S(=O)(=O)c4ccccc4)CC3)o2)cc1 ?
Result: 0

###

Tested on: MDA-MB-468 breast
ASSAY PROTOCOL: NCI-60 one-dose screen, 48 h (100 = growth as untreated, 0 = no growth, -100 = all killed)
TEST PARAMETERS: 10 µM unless noted
About 83,000 compounds went through this panel and 20% of them were active in at least one assay; those are over-represented in the sample as a whole.
Use y when the recorded growth is no lower than 30%; use n when it is lower.

Here are 5 molecules together with their reported answers.
# MOLECULE, CAT
measured = [
    ("COc1ccc(-c2ccc(SCC(=O)NCCc3ccc(S(N)(=O)=O)cc3)nn2)cc1", "y"),
    ("O=C(/C=C/Nc1ccc(Cl)cc1)c1ccc2c(c1)Nc1ccccc1S2", "y"),
    ("COc1ccc(C(=O)/C=C/c2cccc3ccccc23)cc1S(N)(=O)=O", "n"),
    ("Cc1ccc(C(=O)CSc2nc3ccc(F)cc3c(=O)n2-c2ccc(Cl)cc2)cc1", "y"),
    ("Cc1cnc(C(=O)NNc2nc3cc(F)ccc3n3c(C(=O)N4CC5CC(C4)N5)ccc23)cn1", "n"),
]

Field: next molecule
Query: # bool: growth of Cc1ccc(-n2c(-c3cc4ccccc4nc3Cl)noc2=O)cc1 >= 30%
Result: n

###

Test system: LOX IMVI melanoma
ASSAY PROTOCOL: NCI-60 one-dose screen, 48 h
TEST PARAMETERS: 10 µM
The panel holds about 83,000 compounds, 20% with a hit somewhere; the sample as a whole holds those more often. Activity calls are given as the source filed them. Rule for the calls: active = growth percent below 10; inactive = the rest.
Choose the fitting class; nothing outside 1 = active, -1 = inactive is accepted.

# MOLECULE, CAT
measured = [
    ("COc1c(F)ccc(C(=O)Nc2ccc3nc(NC(=O)C4CCCN(S(=O)(=O)c5ccc(Cl)cc5)C4)sc3c2)c1F (stereo not given)", -1),
    ("CCOC(=O)c1ccc(Nc2nc(NN)nc(-c3ccc(F)cc3)c2C#N)cc1", -1),
    ("Cn1cc(-c2cc3nc(-c4cn(C)c5ncccc45)cc(N)n3n2)c2ccccc21", 1),
]

Query: Can you look up the reported call for CCOC(=O)/C=C/c1cccc2c1C(=O)NC(C)(c1cc3cc(Br)ccc3oc1=O)N2 (stereo not given) for me?
Result: -1

Query: Please indicate how the test categorized Nc1cccc(SCc2cc3ccccc3[nH]c2=O)c1 .
Result: 1

###

Test system: EKVX NSCLC
ASSAY PROTOCOL: NCI-60 one-dose screen, 48 h (100 = growth as untreated, 0 = no growth, -100 = all killed)
TEST PARAMETERS: 10 µM unless noted
Compounds without any hit were thinned out: in the full panel of roughly 83,000, 20% have a hit.
Items are presented alongside their recorded growth.
Only the number, expressed in %, is required.

These solved cases illustrate the format of a correct answer.
# TEST SMILES, QUANTITY UNIT, MEASURED RESULT
rows = [
    ("COc1ccccc1/C=C/C(=O)c1ccc(OC)c(S(N)(=O)=O)c1", "%", 23.2),
    ("O=C(O)c1ccc(-c2ccc(/C=N/NC(=O)c3[nH]c4ccc(Br)cc4c3-c3ccccc3)s2)cc1", "%", 13.3),
    ("S=c1c2ccccc2nc2n1CCc1c-2[nH]c2ccccc12", "%", 50.6),
]

Quick note, growth for Cn1cc(-c2cc3nc(-c4cn(C)c5ncccc45)cc(N)n3n2)c2cc(Cl)ccc21 landed at -38.5

CC(C)CSc1nc(NCCc2c[nH]c3ccccc23)c(C#N)c(-c2ccc(F)cc2)n1 yielded growth of 45.9

###

Documented growth across a set of molecules
System: SNB-75 CNS
ASSAY PROTOCOL: NCI-60 one-dose screen, 48 h (100 = growth as untreated, 0 = no growth, -100 = all killed)
TEST PARAMETERS: 10 µM unless noted
The panel holds about 83,000 compounds, 20% with a hit somewhere; the sample as a whole holds those more often. Activity calls are given as the source filed them. How the source made its calls: active means growth percent below 10; inactive means the rest.

Some molecules with known growth results, for comparison:
# MOLECULE, growth
data = [
    ("COc1cc(NC(=O)c2cccc(C3CCc4c(cc(OC)c(OC)c4OC)O3)c2)cc(OC)c1OC (stereo not given)", "11.5% (inactive)"),
    ("CC(C)CSc1nc(NCCc2c[nH]c3ccccc23)c(C#N)c(-c2ccc(F)cc2)n1", "61.1% (inactive)"),
    ("O=C1N/C(=N\\c2nccs2)S/C1=C\\C=C/c1ccccc1", "83.5% (inactive)"),
    ("COc1ccc(/C=C2\\C(=N)N=C(SCc3nc4ccccc4[nH]3)NC2=O)cc1", "103% (inactive)"),
]

Lab note: next molecule to report on.
Recorded growth (molecule COc1ccc(NC(=O)Cn2c(/C=C/c3cccc([N+](=O)[O-])c3)nc3ccccc3c2=O)cc1 ): 1.99% (active)

###

Test system: OVCAR-5 ovarian
ASSAY PROTOCOL: NCI-60 one-dose screen, 48 h
TEST PARAMETERS: 10 µM unless noted
The panel holds about 83,000 compounds, 20% with a hit somewhere; the sample as a whole holds those more often. Activity calls are given as the source filed them. Rule for the calls: active = growth percent below 10; inactive = the rest.
Mark one answer only. Choices: active, inactive

Observe how each entry below is paired with its result.
# TEST SMILES, CAT
rows = [
    ("COc1ccc2[nH]c(=O)c(CSc3nccc(-c4ccc(OC)c(OC)c4)n3)cc2c1", "inactive"),
    ("CCOC(=O)c1ccc(Nc2nc(NN)nc(-c3ccc(OC)cc3)c2C#N)cc1", "inactive"),
    ("COc1ccc(C(SCCNCc2cc(N(C)C)ccn2)(c2ccccc2)c2ccccc2)cc1", "active"),
    ("CCN(CC)c1ccc(/C=N/Nc2nc(-c3ccc(Br)cc3)cs2)c(O)c1", "inactive"),
    ("CCCCSc1nc(NCCc2c[nH]c3ccccc23)c(C#N)c(-c2ccc(F)cc2)n1", "inactive"),
]

Attention now turns to another entry.
Query: // outcome(item) with item = N/C(=N\c1nc2ccccc2s1)NC(=O)Nc1ccccc1Br
Result: active

###

Tested on: U251 CNS
ASSAY PROTOCOL: NCI-60 one-dose screen, 48 h (100 = growth as untreated, 0 = no growth, -100 = all killed)
TEST PARAMETERS: 10 µM unless noted
The panel holds about 83,000 compounds, 20% with a hit somewhere; the sample as a whole holds those more often.
Could you please classify the records by growth using these ranges: bin 0 (below -40%), bin 1 (-40% to below 50%), bin 2 (50% or more)

# MOLECULE, CAT
measured = [
    ("S=c1c2ccccc2nc2n1CCc1c-2[nH]c2ccccc12", "bin 2"),
    ("Cc1ccc(/C=C/c2n(Cc3ccc4ccccc4c3)c3ccccc3[n+]2Cc2ccc3ccccc3c2)cc1", "bin 0"),
    ("CC1CCCCN1CCCNC(=O)N/C(N)=N/c1nc2ccccc2s1 (centres undefined)", "bin 1"),
    ("NS(=O)(=O)c1ccc(-n2cc(-c3cccc(NC(=O)c4cc(Cl)cc(Cl)c4)c3)nn2)cc1", "bin 0"),
]

Note: attention shifts to another entry.
Query: Kindly identify the class of COc1ccc(Cc2nn(CC(=O)N/N=C/c3ccc(F)cc3)c(=O)c3c(C)noc23)cc1 .
Result: bin 1
